# tgt: Receptor tyrosine-protein kinase erbB-2 (Homo sapiens)
# test: […] against ErbB2 at 10 uM by HTRF method
assay-endpoint: Activity

INSERT INTO measurements (item_smiles, tgt, result) VALUES
  ('Cn1cnc(NCc2cccnc2)c1-c1nnc(Nc2ccc(Cl)cc2)o1', 'Receptor tyrosine-protein kinase erbB-2 (Homo sapiens)', '< 30%'),
  ('Cc1cccc(Nc2nnc(-c3c(NCc4ccncc4)ncn3C)o2)c1', 'Receptor tyrosine-protein kinase erbB-2 (Homo sapiens)', '< 30%'),
  ('Cn1cnc(NCc2ccncc2)c1-c1nnc(Nc2ccc(Cl)c(C(F)(F)F)c2)o1', 'Receptor tyrosine-protein kinase erbB-2 (Homo sapiens)', '< 30%'),
  ('Cn1cnc(NCc2cccc3ncccc23)c1-c1nnc(Nc2ccc(Cl)cc2)o1', 'Receptor tyrosine-protein kinase erbB-2 (Homo sapiens)', '< 30%'),
  ('Cn1cnc(NCc2ccncc2)c1-c1nnc(Nc2ccc(OC(F)(F)F)cc2)o1', 'Receptor tyrosine-protein kinase erbB-2 (Homo sapiens)', '< 30%'),
  ('Cn1cnc(NCc2ccc3ccccc3n2)c1-c1nnc(Nc2ccc(Cl)cc2)o1', 'Receptor tyrosine-protein kinase erbB-2 (Homo sapiens)', '< 30%'),
  ('Cn1cnc(NCc2ccncc2)c1-c1nnc(Nc2ccc(-c3ccccc3)cc2)o1', 'Receptor tyrosine-protein kinase erbB-2 (Homo sapiens)', '< 30%');

* * *

# tgt: Insulin-like growth factor 1 receptor (Homo sapiens) (UniProt P08069)
# Sequence (P08069 31-736 limits assumed): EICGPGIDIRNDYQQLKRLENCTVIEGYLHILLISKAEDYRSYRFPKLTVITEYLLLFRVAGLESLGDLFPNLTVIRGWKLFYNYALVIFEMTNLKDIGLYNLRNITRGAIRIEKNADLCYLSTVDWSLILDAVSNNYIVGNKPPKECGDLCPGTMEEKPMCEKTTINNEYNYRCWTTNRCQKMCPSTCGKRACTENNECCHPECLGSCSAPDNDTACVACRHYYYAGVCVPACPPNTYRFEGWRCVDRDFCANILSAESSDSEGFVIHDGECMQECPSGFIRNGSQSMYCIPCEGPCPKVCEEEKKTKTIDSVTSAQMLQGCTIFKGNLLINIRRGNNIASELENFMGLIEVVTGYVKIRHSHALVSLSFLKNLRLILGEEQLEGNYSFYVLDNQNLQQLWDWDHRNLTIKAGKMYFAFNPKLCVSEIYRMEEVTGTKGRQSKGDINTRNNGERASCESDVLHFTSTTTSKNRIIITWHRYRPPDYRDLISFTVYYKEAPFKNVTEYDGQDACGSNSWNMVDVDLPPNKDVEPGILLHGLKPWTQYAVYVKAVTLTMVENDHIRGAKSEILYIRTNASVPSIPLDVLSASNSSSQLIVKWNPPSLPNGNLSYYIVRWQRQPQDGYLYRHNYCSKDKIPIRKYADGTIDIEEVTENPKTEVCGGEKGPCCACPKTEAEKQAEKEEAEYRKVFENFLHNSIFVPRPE
# Sequence (P08069 741-1367 limits assumed): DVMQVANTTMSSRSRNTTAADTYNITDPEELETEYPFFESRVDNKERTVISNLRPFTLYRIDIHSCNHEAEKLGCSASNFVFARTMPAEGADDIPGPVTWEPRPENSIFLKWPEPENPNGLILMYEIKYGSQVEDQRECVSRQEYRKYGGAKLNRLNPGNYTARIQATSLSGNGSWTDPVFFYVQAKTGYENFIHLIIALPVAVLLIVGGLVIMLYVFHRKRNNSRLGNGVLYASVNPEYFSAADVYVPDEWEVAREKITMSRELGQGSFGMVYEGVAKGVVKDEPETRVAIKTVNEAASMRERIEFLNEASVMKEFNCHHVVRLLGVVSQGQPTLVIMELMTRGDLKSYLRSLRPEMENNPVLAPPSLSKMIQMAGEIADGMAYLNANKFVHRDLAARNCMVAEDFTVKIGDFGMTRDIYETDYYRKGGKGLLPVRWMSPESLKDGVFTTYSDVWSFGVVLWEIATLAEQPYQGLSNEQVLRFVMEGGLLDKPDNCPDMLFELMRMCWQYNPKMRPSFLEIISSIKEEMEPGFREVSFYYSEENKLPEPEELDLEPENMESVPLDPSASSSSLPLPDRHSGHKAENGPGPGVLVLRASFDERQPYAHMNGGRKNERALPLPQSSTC
# test: […] against IGF1R at 10 uM by HTRF method
assay-endpoint: Activity

INSERT INTO assay_data (item_smiles, result) VALUES
  ('Cc1cccc(Nc2nnc(-c3c(NCc4ccncc4)ncn3C)o2)c1', '< 30%'),
  ('Cn1cnc(NCc2ccncc2)c1-c1nnc(Nc2ccc(Cl)c(Cl)c2)o1', '< 30%'),
  ('COc1ccc(Nc2nnc(-c3c(NCc4ccncc4)ncn3C)o2)cc1OC', '< 30%'),
  ('Cn1cnc(NCc2ccc3ccccc3n2)c1-c1nnc(Nc2ccc(Cl)cc2)o1', '< 30%'),
  ('Cn1cnc(NCc2ccncc2)c1-c1nnc(NCc2ccc3c(c2)OCO3)o1', '< 30%'),
  ('COc1ccccc1Nc1nnc(-c2c(NCc3ccncc3)ncn2C)o1', '< 30%');

* * *

# test: Solubility in water
# Assay type: physicochemical
assay-endpoint: solubility

INSERT INTO results (item_smiles, result) VALUES
  ('COc1ccc(Nc2nnc(-c3c(NCc4ccncc4)ncn3C)o2)cc1OC', '> 5 mM'),
  ('Cn1cnc(NCc2ccncc2)c1-c1nnc(Nc2ccc(C(F)(F)F)cc2)o1', '> 5 mM'),
  ('Cn1cnc(NCc2ccncc2)c1-c1nnc(Nc2ccc(OC(F)(F)Cl)cc2)o1', '> 5 mM'),
  ('COc1cccc(Nc2nnc(-c3c(NCc4ccncc4)ncn3C)o2)c1', '> 5 mM'),
  ('Cn1cnc(NCc2ccncc2)c1-c1nnc(Nc2ccc(OC(F)(F)F)cc2)o1', '> 5 mM');

* * *

Below, each of the molecules is paired with its reported Percent inhibition value.
# tgt: Cyclin-dependent kinase 2 (Homo sapiens) (UniProt P24941)
# test: […] against Cdk2 at 10 uM by HTRF method
assay-endpoint: Percent inhibition

INSERT INTO results (item_smiles, result) VALUES
  ('Cn1cnc(NCc2cccc3ncccc23)c1-c1nnc(Nc2ccc(Cl)cc2)o1', '< 30%'),
  ('Cn1cnc(NCc2ccncc2)c1-c1nnc(Nc2ccc(Br)cc2)o1', '< 30%'),
  ('Cn1cnc(NCc2ccncc2)c1-c1nnc(Nc2ccc(Cc3ccccc3)cc2)o1', '< 30%'),
  ('Cn1cnc(NCc2ccncc2)c1-c1nnc(Nc2ccc(C(C)(C)C)cc2)o1', '< 30%'),
  ('Cn1cnc(NCc2ccncc2)c1-c1nnc(Nc2ccc(OC(F)(F)Cl)cc2)o1', '< 30%'),
  ('COc1ccc(Nc2nnc(-c3c(NCc4ccncc4)ncn3C)o2)cc1OC', '< 30%'),
  ('Cc1cccc(Nc2nnc(-c3c(NCc4ccncc4)ncn3C)o2)c1', '< 30%'),
  ('Cn1cnc(NCc2ccncc2)c1-c1nnc(Nc2ccc(Cl)cc2)o1', '< 30%'),
  ('Cn1cnc(NCc2cccnc2)c1-c1nnc(Nc2ccc(Cl)cc2)o1', '< 30%'),
  ('Cn1cnc(NCc2ccc3ccccc3n2)c1-c1nnc(Nc2ccc(Cl)cc2)o1', '< 30%'),
  ('COc1ccccc1Nc1nnc(-c2c(NCc3ccncc3)ncn2C)o1', '< 30%'),
  ('COc1cccc(Nc2nnc(-c3c(NCc4ccncc4)ncn3C)o2)c1', '< 30%'),
  ('Cn1cnc(NCc2ccncc2)c1-c1nnc(Nc2ccc(-c3ccccc3)cc2)o1', '< 30%'),
  ('Cc1ccccc1Nc1nnc(-c2c(NCc3ccncc3)ncn2C)o1', '< 30%'),
  ('Cn1cnc(NCc2ccccn2)c1-c1nnc(Nc2ccc(Cl)cc2)o1', '< 30%'),
  ('CC(C)c1ccc(Nc2nnc(-c3c(NCc4ccncc4)ncn3C)o2)cc1', '< 30%'),
  ('Cn1cnc(NCc2ccncc2)c1-c1nnc(Nc2ccc(Cl)c(C(F)(F)F)c2)o1', '< 30%');

* * *

# tgt: Vascular endothelial growth factor receptor 2 (Homo sapiens, UniProt P35968)
# Sequence (P35968 whole entry): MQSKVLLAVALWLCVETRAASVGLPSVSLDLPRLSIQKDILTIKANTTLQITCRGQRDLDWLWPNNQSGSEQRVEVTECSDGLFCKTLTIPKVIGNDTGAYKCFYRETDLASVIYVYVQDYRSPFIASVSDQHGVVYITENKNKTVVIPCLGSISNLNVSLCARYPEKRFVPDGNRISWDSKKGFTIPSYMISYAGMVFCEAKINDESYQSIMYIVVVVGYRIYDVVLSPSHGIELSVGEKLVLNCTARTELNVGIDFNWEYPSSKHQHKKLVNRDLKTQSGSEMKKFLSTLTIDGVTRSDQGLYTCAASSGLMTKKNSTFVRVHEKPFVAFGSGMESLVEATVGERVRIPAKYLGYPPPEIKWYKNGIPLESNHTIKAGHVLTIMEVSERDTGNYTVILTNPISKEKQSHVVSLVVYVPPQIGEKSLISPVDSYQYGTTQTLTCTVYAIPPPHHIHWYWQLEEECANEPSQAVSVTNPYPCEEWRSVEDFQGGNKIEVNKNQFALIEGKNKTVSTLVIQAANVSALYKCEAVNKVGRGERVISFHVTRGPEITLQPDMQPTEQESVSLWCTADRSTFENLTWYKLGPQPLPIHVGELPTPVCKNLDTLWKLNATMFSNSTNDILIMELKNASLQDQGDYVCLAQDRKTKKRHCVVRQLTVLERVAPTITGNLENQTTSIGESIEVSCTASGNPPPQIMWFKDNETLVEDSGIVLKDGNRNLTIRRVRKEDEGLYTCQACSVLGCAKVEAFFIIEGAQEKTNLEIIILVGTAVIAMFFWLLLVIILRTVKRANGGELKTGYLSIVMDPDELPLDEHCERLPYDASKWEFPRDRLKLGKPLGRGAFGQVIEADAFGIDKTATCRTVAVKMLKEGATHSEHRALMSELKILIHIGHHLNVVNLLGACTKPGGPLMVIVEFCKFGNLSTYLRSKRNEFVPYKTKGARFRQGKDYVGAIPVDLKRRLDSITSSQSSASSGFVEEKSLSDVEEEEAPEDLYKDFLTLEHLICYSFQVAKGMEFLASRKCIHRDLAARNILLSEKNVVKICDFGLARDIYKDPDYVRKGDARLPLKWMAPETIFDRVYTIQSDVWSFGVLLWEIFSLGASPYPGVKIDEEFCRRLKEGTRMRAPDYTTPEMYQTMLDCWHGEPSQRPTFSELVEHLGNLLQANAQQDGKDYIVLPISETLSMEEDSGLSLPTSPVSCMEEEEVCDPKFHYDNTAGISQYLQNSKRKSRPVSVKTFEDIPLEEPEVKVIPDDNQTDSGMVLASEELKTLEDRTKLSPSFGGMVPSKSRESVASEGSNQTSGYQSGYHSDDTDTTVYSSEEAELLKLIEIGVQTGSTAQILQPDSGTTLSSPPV
# test: Inhibition of VEGFR2 by enzymatic assay
pIC50: −log10 of the molar value.
assay-endpoint: pIC50

INSERT INTO results (item_smiles, assay_endpoint, qualifier_sign, numeric_value) VALUES
  ('Cn1cnc(NCc2ccc3[nH]ncc3c2)c1-c1nnc(Nc2ccc(Cl)cc2)o1', 'pIC50', '=', 5.63),
  ('Cn1cnc(NCc2ccncc2)c1-c1nnc(Nc2ccc(C(F)(F)F)cc2)o1', 'pIC50', '=', 7.14),
  ('Cn1cnc(NCc2cccc3ncccc23)c1-c1nnc(Nc2ccc(Cl)cc2)o1', 'pIC50', '=', 5.45),
  ('Cc1ccc(Nc2nnc(-c3c(NCc4ccncc4)ncn3C)o2)c(F)c1', 'pIC50', '=', 6.59),
  ('Cn1cnc(NCc2ccncc2)c1-c1nnc(Nc2ccc(-c3ccccc3)cc2)o1', 'pIC50', '=', 5.49),
  ('Cn1cnc(NCc2ccncc2)c1-c1nnc(Nc2ccc(Cl)cc2)o1', 'pIC50', '=', 6.60),
  ('Cn1cnc(NCc2ccncc2)c1-c1nnc(Nc2cccc(OC(F)(F)F)c2)o1', 'pIC50', '=', 7.34),
  ('Cn1cnc(NCc2ccc(F)c(F)c2)c1-c1nnc(Nc2ccc(Cl)cc2)o1', 'pIC50', '=', 5.73),
  ('Cn1cnc(NCCc2ccc3c(c2)OCO3)c1-c1nnc(Nc2ccc(Cl)cc2)o1', 'pIC50', '=', 6.02),
  ('Cn1cnc(NCc2ccncc2)c1-c1nnc(Nc2ccc(Cl)c(C(F)(F)F)c2)o1', 'pIC50', '=', 7.37),
  ('Cn1cnc(NCc2ccc3ccccc3n2)c1-c1nnc(Nc2ccc(Cl)cc2)o1', 'pIC50', '<', 5.00),
  ('CC(C)c1ccc(Nc2nnc(-c3c(NCc4ccncc4)ncn3C)o2)cc1', 'pIC50', '=', 6.36),
  ('Cc1cccc(Nc2nnc(-c3c(NCc4ccncc4)ncn3C)o2)c1', 'pIC50', '=', 6.15),
  ('COc1cccc(Nc2nnc(-c3c(NCc4ccncc4)ncn3C)o2)c1', 'pIC50', '=', 6.89),
  ('Cn1cnc(NCc2ccccn2)c1-c1nnc(Nc2ccc(Cl)cc2)o1', 'pIC50', '<', 5.00),
  ('Cn1cnc(NCc2ccncc2)c1-c1nnc(Nc2ccc(Cc3ccccc3)cc2)o1', 'pIC50', '<', 5.00);

* * *

# tgt: Vascular endothelial growth factor receptor 2 (Homo sapiens)
# test: Inhibition of VEGFR2 by enzymatic assay
Measured IC50, listed per entry.
assay-endpoint: IC50 (nM)

INSERT INTO assay_data (item_smiles, assay_endpoint, qualifier_sign, numeric_value) VALUES
  ('Cn1cnc(NCc2ccncc2)c1-c1nnc(NCc2ccc3c(c2)OCO3)o1', 'IC50', '=', 140),
  ('COc1ccc(Nc2nnc(-c3c(NCc4ccncc4)ncn3C)o2)cc1OC', 'IC50', '=', 52),
  ('Cc1ccccc1Nc1nnc(-c2c(NCc3ccncc3)ncn2C)o1', 'IC50', '>', 10000),
  ('Cn1cnc(NCc2ccncc2)c1-c1nnc(Nc2ccc(OC(F)(F)Cl)cc2)o1', 'IC50', '=', 130),
  ('Cn1cnc(NCc2ccncc2)c1-c1nnc(Nc2ccc(C(C)(C)C)cc2)o1', 'IC50', '=', 380);
